Target: Carbonic anhydrase 2 (Homo sapiens) (UniProt P00918)
Assay: CAII small-molecule binders, profiling panel, biochemical, small-molecule microarray, Alexa647-labelled CAII (AID 1122)
Details: CAII-A647 binding fluorescence, higher = more signal

>  <Molecule>
COc1ccc([Si](C)(C)[C@H]2[C@H](CCn3cc([C@H](O)c4ccccc4)nn3)O[C@@]3(C(=O)N(Cc4cccc(N5C(=O)c6cccc7cccc5c67)c4)c4ccccc43)[C@@H]2C)cc1

>  <composite z-score>
0.339

$$$$
>  <Molecule>
O=C1c2ccccc2[C@@]2(Cc3ccccc3N(C3CC3)C2=O)[C@H](c2ccc(CO)cc2)N1C1CCCCC1

>  <composite z-score>
0.269

$$$$
>  <Molecule>
C=C(C(=O)CC[C@H](OC(=O)c1cccnc1)c1cccc(OCCO)c1)C(C)C

>  <composite z-score>
0.0143

$$$$
>  <Molecule>
COc1ccc([Si](C)(C)[C@H]2[C@H](CCn3cc([C@H](O)c4ccccc4)nn3)O[C@@]3(C(=O)N(Cc4ccc(N5CCC5=O)cc4)c4ccccc43)[C@@H]2C)cc1

>  <composite z-score>
0.0133

$$$$
>  <Molecule>
C[C@H]1C2=C3C(CC[C@H]4C(OCc5ccc(F)cc5C(F)(F)F)OC[C@](C)([C@@H]34)N(C(=O)OC(C)(C)C)C2)C(CO)C1CO (stereo partly drawn)

>  <composite z-score>
0.352

$$$$
>  <Molecule>
C=CC[C@@]1(C(=O)O)N=C(c2ccc(OCCCO)cc2)O[C@@H]1c1ccccc1

>  <composite z-score>
0.527

$$$$
>  <Molecule>
O=c1cccc(-c2cccc(Cl)c2)o1

>  <composite z-score>
-0.0655

$$$$
>  <Molecule>
O=C1OCC=C[C@H]2OC34C=CCN(Cn5nnc6ccccc65)C(=O)[C@H]3N(CCCCCCO)C(=O)[C@@H]4[C@@H]12 (stereo partly drawn)

>  <composite z-score>
0.904

$$$$

###

Test: basal RPMI8226 viability, no added stimulus, profiling panel, cell-based, calcein-AM fluorescence, 48 h, PK04 Diversity Set (AID 1166);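 also: cells grown under basal conditions without added stimulus; test concentration not given here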
Settings: RPMI8226 myeloma viability, higher = more signal
Each record here notes measured z-score.
Recorded Metric: z-score

>  <Compound>
CN1C(=O)[C@@]2(CCS(=O)(=O)c3ccccc3)N=C(c3ccc(OCCCO)cc3)O[C@H]2c2ccccc21

>  <Measured Value>
-0.517

$$$$
>  <Compound>
O=C1O[C@@H](c2ccccc2)[C@@H](c2ccccc2)N2[C@@H](c3ccccc3OCCO)[C@]3(C(=O)Nc4ccccc43)[C@@H](C(=O)NC[C@H](O)c3ccccc3)[C@H]12

>  <Measured Value>
-4.54

$$$$
>  <Compound>
CCOC(=CC(=O)OC)CC(O)c1cccc(Cl)c1 (centres undefined)

>  <Measured Value>
-1.15

$$$$
>  <Compound>
COc1cc2c(cc1O)C(C)N(Cc1cc3c(cc1Br)OCO3)CC2 (centres undefined)

>  <Measured Value>
-0.308

$$$$
>  <Compound>
C=C(/C(=C/C[C@@H](OC(=O)c1ccncc1)c1ccc(OCCO)cc1)c1cc(C(=O)OC)ccc1OC)C(C)C

>  <Measured Value>
0.687

$$$$
>  <Compound>
CCCCC(=C=CC[C@@H](O)c1ccc(OCCO)cc1)C[C@@H](O)COCc1ccccc1

>  <Measured Value>
-0.586

$$$$
>  <Compound>
C=C[C@@H](COC(C)=O)NS(=O)(=O)c1ccc(Br)cc1

>  <Measured Value>
-1.74

$$$$
>  <Compound>
COc1c(C)cc(-c2cc3c(c(Cc4ccccc4)n2)[Si](C(C)C)(C(C)C)OC3)cc1C

>  <Measured Value>
-0.0095

$$$$
>  <Compound>
COC(=O)c1c(CC[C@@H](CO)NC(=O)N[C@H](Cn2cc(-c3ccccc3C)nn2)C(C)C)oc(C(C)=O)c1C(=O)OC

>  <Measured Value>
-0.607

$$$$
>  <Compound>
COc1cc(OC)c(C(O)C2C=CC3C(=O)N(c4ccccc4)C(=O)C3N2Nc2ccc(C#N)cc2)cc1Br (centres undefined)

>  <Measured Value>
-0.241

$$$$
>  <Compound>
C=C(C(=O)CC[C@H](OC(C)=O)c1cccc(OCCO)c1)C(C)C

>  <Measured Value>
-0.814

$$$$
>  <Compound>
COC(=O)[C@@]1(Cc2ccc(OC)cc2)[C@H]2c3cc(C(=O)N(C)C)n(Cc4ccccc4)c3C[C@H]2CN1C(=O)c1ccccc1

>  <Measured Value>
-2.17

$$$$
>  <Compound>
COCC(=C=CC[C@H](O)c1cccc(OCCO)c1)C[C@H](O)c1ccccn1

>  <Measured Value>
0.461

$$$$
>  <Compound>
CC(C)(C)OC(=O)CC[C@@]1(C(=O)O)N=C(c2ccc(OCCCO)cc2)O[C@@H]1c1ccccc1

>  <Measured Value>
0.335

$$$$
>  <Compound>
O=C1OCCC=C[C@H]2OC34C=CCN(c5ccc(Cl)cc5)C(=O)[C@H]3N(CCCCCO)C(=O)[C@@H]4C12 (some centres undefined)

>  <Measured Value>
-0.579

$$$$
>  <Compound>
[N-]=[N+]=NCc1ccccc1C[C@]1(C(=O)NCC(O)CO)N=C(c2ccc(OCCCO)cc2)O[C@H]1c1ccccc1CN=[N+]=[N-] (some centres undefined)

>  <Measured Value>
-2.6

$$$$
>  <Compound>
O=C1O[C@@H](c2ccccc2)[C@@H](c2ccccc2)N2[C@@H](c3ccc(O)cc3)[C@]3(C(=O)Nc4ccc(C#CCCO)cc43)[C@@H](C(=O)Nc3nc4ccccc4s3)[C@H]12

>  <Measured Value>
-2.65

$$$$
>  <Compound>
C[C@@H](OCc1ccccc1)C1NC(=O)[C@@]23C(=O)N[C@@H](Cc4ccccc4)C2[C@H](C)[C@@]2(C)O[C@H]2C3/C=C/C/C=C\CNC(=O)CNC1=O (some centres undefined)

>  <Measured Value>
-1.25

$$$$
>  <Compound>
CC(C)(C)N1CC=CC23O[C@@H]4C=CCOC(=O)[C@@H]4[C@H]2C(=O)N(CCCO)[C@@H]3C1=O (some centres undefined)

>  <Measured Value>
-0.664

$$$$
>  <Compound>
COCCOC(=O)N1C(=O)[C@@]2(c3cc(C#CC4=CCCCC4)ccc31)[C@H](c1ccccc1OCCO)N1[C@H](c3ccccc3)[C@H](c3ccccc3)OC(=O)[C@H]1[C@@H]2C(=O)N1CCc2cc(OC)c(OC)cc2C1

>  <Measured Value>
-2.05

$$$$
>  <Compound>
C=CCOC(=O)[C@H]1[C@@H]2C(=O)O[C@@H](c3ccccc3)[C@@H](c3ccccc3)N2[C@@H](c2ccc(OCCOC(=O)[C@H]3C[C@H]4C(=O)N[C@@H](Cc5ccccc5)C(=O)N4[C@H]3c3cccc(OCCO)c3)cc2)[C@]12C(=O)Nc1ccc(I)cc12

>  <Measured Value>
-0.766

$$$$
>  <Compound>
CC[C@H]1C2=C3C(CC[C@H]4C(OCc5ccc(F)cc5C(F)(F)F)OC[C@](C)([C@@H]34)N(C(=O)OC(C)(C)C)C2)C2COC(=O)OCC21 (some centres undefined)

>  <Measured Value>
-4.68

$$$$
>  <Compound>
O=C1NCC(=O)N2[C@@H]1C[C@@H](C(=O)O)[C@H]2c1ccc(O)cc1

>  <Measured Value>
-0.0676

$$$$
>  <Compound>
O=C(CS)NCCCCCCNC(=O)[C@H]1C[C@H]2C(=O)N[C@@H](Cc3ccccc3)C(=O)N2[C@H]1c1cccc(OCCO)c1

>  <Measured Value>
0.895

$$$$

###

Experiment: S. cerevisiae growth modulation with rapamycin, primary screen, strain BY4716, OD600, 96 h (AID 1091); also: test concentration not given here
Conditions: higher = more signal, called active from +8 up or from −8 down
Recorded Metric: z-score

>  <Entry Smiles>
COCCOC(=O)N1C(=O)[C@@]2(c3cc(C#CC4(O)CCCCCC4)ccc31)[C@H](C(N)=O)[C@H]1C(=O)O[C@H](c3ccccc3)[C@H](c3ccccc3)N1[C@@H]2c1ccc(O)cc1

>  <Measured Value>
0.523

$$$$
>  <Entry Smiles>
COc1ccc([Si](C)(C)[C@H]2[C@H](CCn3cc([C@H](O)c4ccccc4)nn3)O[C@@]3(C(=O)N(Cc4cccc(N5C(=O)c6cccc7cccc5c67)c4)c4ccccc43)[C@@H]2C)cc1

>  <Measured Value>
0.635

$$$$
>  <Entry Smiles>
O=C(CS)NCCCCCCNC(=O)[C@@H]1C[C@@H]2C(=O)N3CCC[C@H]3C(=O)N2[C@@H]1c1cccc(OCCO)c1

>  <Measured Value>
-0.365

$$$$
>  <Entry Smiles>
CC(C)C(=C=CC[C@@H](O)c1ccccc1OCCO)C[C@@H](O)COCc1ccccc1

>  <Measured Value>
-3.68

$$$$
>  <Entry Smiles>
O=C1O[C@@H](c2ccccc2)[C@@H](c2ccccc2)N2[C@@H](c3ccc(O)cc3)[C@]3(C(=O)Nc4ccc(C#CCCO)cc43)[C@@H](C(=O)NC[C@H](O)c3ccccc3)[C@H]12

>  <Measured Value>
0.914

$$$$
>  <Entry Smiles>
O=C1O[C@H](c2ccccc2)[C@H](c2ccccc2)N2[C@H]1[C@@H](C(=O)O)[C@]1(C(=O)Nc3ccccc31)[C@H]2c1ccc(O)cc1

>  <Measured Value>
0.3

$$$$
